Values were extracted from paper PMC11077950.

test system: TNfxB3; experiment: SPR; conditions: EMSA: PBS (137 mM NaCl, 2.7 mM KCl, 8 mM Na2HPO4, 2 mM KH2PO4), 2 uL glycerin in 20 uL, 80 ng DNA, 5-70 pmol protein, 25 C, 30 min, 30 uL/min …
Experimental Readout: Kd (nM)
Give the number; nM is assumed, so skip it.

Memo: ATACTAGCTTTGTTCACACCAAAATCAAATGAGTCAATATTGACTTATTTGATTTTTGCGTGGATCATGCGCGGCTTCGAC (double strand) [SPR operator DNA with two inverted repeats, 81 bp] , reported Kd: 917
